The reported numbers originate from ChEMBL document CHEMBL4041470.

tested on: MDA-MB-231; experiment: Cytotoxicity against human MDA-MB-231 cells assessed as reduction in cell viability after 72 hrs by MTT assay; format: functional, cell-based; settings: MDA-MB-231, 72 h
Assign IC50 to each entry below.

Look over these answered cases.
>>> result("C=C1C(=O)O[C@H]2[C@H]1[C@H](O)[C@H](OC(=O)/C(C)=C\\C)[C@H](C)CCC(=O)[C@](C)(O)[C@@H]2OC(=O)C(C)C")
"2.02 µM"
>>> result("C/C=C(/C)C(=O)O[C@@H]1[C@H]2OC(=O)[C@@H](COC)[C@@H]2[C@H](O)[C@H](OC(=O)CC(C)C)[C@H](C)CCC(=O)[C@]1(C)O")
"> 100 µM"
>>> result("C=C1C(=O)O[C@H]2[C@H]1[C@@H](O)[C@]1(O)O[C@@H](C[C@H]1C)C[C@](C)(O)[C@@H]2OC(=O)/C(C)=C\\C (relative stereo)")
"> 100 µM"
>>> result("C=C1C(=O)O[C@H]2[C@H]1[C@@H](O)[C@]1(O)O[C@@H](C[C@H]1C)C[C@](C)(O)[C@@H]2OC(=O)C(C)C")
"> 100 µM"

Your task in this section: give IC50 for each listed record.
1. C/C=C(/C)C(=O)O[C@H]1[C@@H](O)[C@@H]2[C@H](OC(=O)[C@H]2COC)[C@@H](OC(=O)C(C)CC)[C@@](C)(O)C(=O)CC[C@H]1C (relative stereo)
2. C=C1C(=O)O[C@H]2[C@H]1[C@H](OC(=O)/C(C)=C\C)C(=O)[C@H](C)CCC[C@](C)(O)[C@@H]2OC(=O)C(C)C (relative stereo)

Response:
1: > 100 µM; 2: 7.53 µM
